- testSystem: Recombinant human KIF18A (1-467His-tagged) protein (Homo sapiens, UniProt Q8NI77)
- Construct: Recombinant human KIF18A (1-467His-tagged) protein; His
- Sequence (Q8NI77 1-467): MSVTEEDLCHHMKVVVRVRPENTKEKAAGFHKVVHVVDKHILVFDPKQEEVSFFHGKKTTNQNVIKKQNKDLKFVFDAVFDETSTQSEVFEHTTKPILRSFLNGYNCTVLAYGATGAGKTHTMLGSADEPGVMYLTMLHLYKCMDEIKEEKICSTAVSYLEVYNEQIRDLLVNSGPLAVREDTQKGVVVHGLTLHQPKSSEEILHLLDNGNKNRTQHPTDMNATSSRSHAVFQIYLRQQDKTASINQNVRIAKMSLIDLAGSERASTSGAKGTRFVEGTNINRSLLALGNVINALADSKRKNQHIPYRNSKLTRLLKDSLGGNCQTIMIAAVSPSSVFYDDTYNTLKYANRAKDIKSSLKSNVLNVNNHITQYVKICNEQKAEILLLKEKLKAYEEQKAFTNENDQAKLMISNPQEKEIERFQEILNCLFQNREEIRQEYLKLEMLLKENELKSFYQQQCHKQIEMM
- Sequence (P02550 whole entry partner): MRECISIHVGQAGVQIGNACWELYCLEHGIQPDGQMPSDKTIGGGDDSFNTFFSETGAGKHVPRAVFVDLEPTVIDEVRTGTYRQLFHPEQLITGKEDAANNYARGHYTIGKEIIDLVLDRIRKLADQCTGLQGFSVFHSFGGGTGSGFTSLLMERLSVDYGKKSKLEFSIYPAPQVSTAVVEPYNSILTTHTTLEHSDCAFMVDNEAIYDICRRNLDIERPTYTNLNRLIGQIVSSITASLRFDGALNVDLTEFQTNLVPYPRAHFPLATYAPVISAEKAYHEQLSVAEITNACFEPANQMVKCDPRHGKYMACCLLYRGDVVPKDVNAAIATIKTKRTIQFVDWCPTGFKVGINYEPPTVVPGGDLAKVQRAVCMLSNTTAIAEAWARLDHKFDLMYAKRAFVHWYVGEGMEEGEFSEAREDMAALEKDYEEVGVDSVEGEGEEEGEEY
- Sequence (P02554 whole entry partner): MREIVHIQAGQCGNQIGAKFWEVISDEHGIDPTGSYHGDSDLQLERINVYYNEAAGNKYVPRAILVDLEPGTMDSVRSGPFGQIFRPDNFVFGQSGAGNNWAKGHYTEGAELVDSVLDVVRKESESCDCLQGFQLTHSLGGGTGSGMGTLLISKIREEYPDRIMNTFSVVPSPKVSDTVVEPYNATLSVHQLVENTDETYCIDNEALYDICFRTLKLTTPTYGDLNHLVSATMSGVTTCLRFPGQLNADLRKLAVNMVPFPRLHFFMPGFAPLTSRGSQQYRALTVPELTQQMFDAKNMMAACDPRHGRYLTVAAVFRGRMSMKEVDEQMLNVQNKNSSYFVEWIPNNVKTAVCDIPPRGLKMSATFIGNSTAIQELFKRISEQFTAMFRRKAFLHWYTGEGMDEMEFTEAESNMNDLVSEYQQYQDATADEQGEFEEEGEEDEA
- testName: KIF18A enzyme assay (microtubule-stimulated ATPase activity, ADP-Glo)
- studyConditions: 30 nM KIF18A, 75 μM ATP, 30 μg/mL pig microtubules; read-out: Inhibitory activity against KIF18A IC50
pIC50: −log10 of the molar value.
measurementName: pIC50

Reference set, count: 5
{"compound": "COc1ccc(C(=O)Nc2ccc(S(=O)(=O)NCCO)cc2N2CCC3(CC2)CC3)nc1N1CCOCC1", "pIC50": "≥ 7.00"}
{"compound": "O=C(Nc1ccc([N+](=O)[O-])c(OCCC(F)(F)F)n1)c1cnc(NS(=O)(=O)CCO)cc1N1CCC2(CC1)CC2", "pIC50": "≥ 7.00"}
{"compound": "CSc1ccc(NC(=O)c2ccc(NS(=O)(=O)CCO)cc2N2CCC3(CC2)CC3)cc1N1CC(F)(F)C1", "pIC50": "≥ 7.00"}
{"compound": "O=C(Nc1ccc(S(=O)(=O)NCCO)cc1N1CCC2(CC1)CC2)c1ccc(OCF)c(N2CCC(F)(F)CC2)n1", "pIC50": "6.30 to 7.00"}
{"compound": "C[C@H]1CN(c2cc(NC(=O)c3cnc(S(=O)(=O)NCCO)cc3N3CCC4(CC3)CC4)ccc2OCF)CCO1", "pIC50": "≥ 7.00"}

We now examine a further compound.
Q. Name the recorded pIC50 for "COc1ccc(C(=O)Nc2ccc(S(=O)(=O)NCCO)cc2N2CCC3(CC2)CC3)nc1N1CCC2(CC2)C1" .
A. ≥ 7.00

---

- testSystem: Recombinant human KIF18A (1-467His-tagged) protein (Homo sapiens, UniProt Q8NI77)
- Construct: Recombinant human KIF18A (1-467His-tagged) protein; His
- testName: KIF18A enzyme assay (microtubule-stimulated ATPase activity, ADP-Glo)
- studyConditions: 30 nM KIF18A, 75 μM ATP, 30 μg/mL pig microtubules; read-out: Inhibitory activity against KIF18A IC50
measurementName: IC50

{"compound": "COc1ccc(NC(=O)c2ccc(NS(=O)(=O)[C@@H](C)CO)cc2N2CCC3(CC2)CC3)nc1N1CCO[C@H](C)C1", "testSystem": "Recombinant human KIF18A (1-467His-tagged) protein (Homo sapiens, UniProt Q8NI77)", "measurementName": "IC50", "measuredValue": "≤ 100 nM"}

Please report IC50 for every entry that follows.
1. O=C(Nc1ccc(S(=O)(=O)NCCO)cc1N1CCC2(CC1)CC2)c1ccc(OCF)c(N2CCC(F)CC2)c1
2. C[C@@H]1CN(c2nc(NC(=O)c3cnc(S(=O)(=O)NCCO)cc3N3CCC4(CC3)CC4)ccc2OCF)CCO1
3. CSc1ccc(NC(=O)c2cnc(NS(=O)(=O)[C@@H](C)CO)cc2N2CCC3(CC2)CC3)cc1N1CCO[C@H](C)C1
4. C[C@@H]1CN(c2cc(NC(=O)c3ccc(NS(=O)(=O)CCO)cc3N3CCC4(CC3)CC4)ccc2OCF)CCO1

A.
1: 100 to 500 nM; 2: ≤ 100 nM; 3: ≤ 100 nM; 4: ≤ 100 nM

---

- testSystem: Recombinant human KIF18A (1-467His-tagged) protein (Homo sapiens)
- Construct: Recombinant human KIF18A (1-467His-tagged) protein; His
- testName: KIF18A enzyme assay (microtubule-stimulated ATPase activity, ADP-Glo)
- studyConditions: 30 nM KIF18A, 75 μM ATP, 30 μg/mL pig microtubules; read-out: Inhibitory activity against KIF18A IC50
Field: IC50. Provide a value for each of the compounds that follow.

Reference set, count: 5
{"compound": "C[C@H](CO)NS(=O)(=O)c1ccc(NC(=O)c2ccc([N+](=O)[O-])c(N3CCO[C@H](C)C3)c2)c(N2CCC3(CC2)CC3)c1 [Compound 64]", "testSystem": "Recombinant human KIF18A (1-467His-tagged) protein (Homo sapiens)", "IC50": "100 to 500 nM"}
{"compound": "O=C(Nc1ccc(S(=O)(=O)NCCO)cc1N1CCC2(CC1)CC2)c1ccc(OCF)c(N2CCC(F)(F)CC2)c1 [Compound 529]", "testSystem": "Recombinant human KIF18A (1-467His-tagged) protein (Homo sapiens)", "IC50": "100 to 500 nM"}
{"compound": "C[C@@H]1CN(c2nc(C(=O)Nc3ccc(S(=O)(=O)NCCO)cc3N3CCC4(CC3)CC4)ccc2[N+](=O)[O-])CCO1 [Compound 178]", "testSystem": "Recombinant human KIF18A (1-467His-tagged) protein (Homo sapiens)", "IC50": "100 to 500 nM"}
{"compound": "O=C(Nc1ccc(OCF)c(N2CCC(F)CC2)n1)c1cnc(NS(=O)(=O)CCO)cc1N1CCC2(CC1)CC2 [Compound 489]", "testSystem": "Recombinant human KIF18A (1-467His-tagged) protein (Homo sapiens)", "IC50": "≤ 100 nM"}
{"compound": "O=C(Nc1ccc(S(=O)(=O)NCCO)cc1N1CCC2(CC1)CC2)c1ccc([N+](=O)[O-])c(OC2CCC2)c1 [Compound 55]", "testSystem": "Recombinant human KIF18A (1-467His-tagged) protein (Homo sapiens)", "IC50": "100 to 500 nM"}

We now examine a further compound.
Q. Recall the recorded IC50 for COc1ccc(C(=O)Nc2ccc(NS(=O)(=O)[C@@H](C)CO)cc2N2CCC3(CC2)CC3)nc1N1CCC(F)(F)CC1 [Compound 333] with Recombinant human KIF18A (1-467His-tagged) protein (Homo sapiens) and state it.
A. ≤ 100 nM
